Test system: P. falciparum stage V gametocytes
Parameters: BacTiter-Glo ATP luminescence viability of purified stage V gametocytes in 384-well plates, per cent inhibition versus DMSO
Settings: 48 h, 5 µM; inhibitor
Among all 13,000 compounds or so, about 3,200 (25%) showed an effect of 50% or more. Some of the results follow.
Give measured % Inhibition for each item. Keep answers brief.
Give bare numbers, in %.

>  <Compound>
CCNc1cc(C)nc(Nc2ccc(NC(=O)c3ccccc3)cc2)n1

>  <% Inhibition / %>
-14.46

$$$$

Fill in % Inhibition for each of the 4 compounds listed.
1. Oc1c(CN2CCCC(C(F)(F)F)C2)cc(Cl)c2ccccc12 (centres unmarked)
2. COc1cccc2cc(C(=O)N[C@@H](CC(C)C)C(=O)N[C@H](/C=N/N3C(=O)CN(Cc4ccccc4)C3=O)CCc3ccccc3)oc12
3. CC1CCCN(Cc2cc(Cl)cc(Cl)c2O)C1 (centres unmarked)
4. CCc1ccc(N2C(N)=NC(N)=NC2(C)C)cc1

Key:
1. 96.48
2. -10.77
3. 14.71
4. 18.99
